The reported measurements were obtained from ChEMBL document CHEMBL3044874.

test system: Rattus norvegicus; test: Anticonvulsant activity in Rattus norvegicus Wistar (rat) assessed as protection against maximal electroshock-induced seizure at 30 mg/kg, po measured at 1 hr; type: functional, organism-based; set-up: dose 30 mg/kg
Calls of active or inactive are those of the source. No cut-off for these calls is given here.
Entry note: the call must match one of y = active, n = inactive

- O=C1NC(=O)C(c2ccccc2)(c2ccccc2)N1: y
- C(=C\c1ccccc1)/C=N/Cc1cccnc1: n
- COc1ccccc1/C=N/Cc1cccnc1: y
- COc1ccc(/C=N/Cc2cccnc2)cc1O: y

Task item: Lab log entry: "C/C(=N\Cc1cccnc1)c1ccccc1" — outcome as called in the assay?
Reply: y

Task item: Lab log entry: "O=[N+]([O-])c1ccc(/C=N/Cc2cccnc2)cc1" — outcome as called in the assay?
Reply: n

Task item: Lab log entry: "C(=N\Cc1cccnc1)/c1ccccc1" — outcome as called in the assay?
Reply: y
